Origin of the recorded values: the supplement of paper PMC8728848

Reported glycan array binding signal (z-score) values for the following binders.
- MEASURED_TARGET: Kdn(a2-3)Gal(b1-3)GlcNAc
- MEASUREMENT_NOTES: glycan array binding signal (z-score within array); higher = stronger binding
- REPORTED_CONDITIONS: glycan notation: IUPAC condensed, linker removed
Only a selection was taken, and the strongest signals are over-represented in it overall.

BINDER | glycan array binding signal (z-score)
CBM40 CPF071 (Clostridium perfringens) (protein) MAHHHHHHVGTGSNDDDDKSPDPMLSSLGEYKDINLESSNASNITYDLEKYKNLDEGTIVVRFNSKDSKIQSLLGISNSKTKNGYFNFYVTNSRVGFELRNQKNEGNTQNGTENLVHMYKDVALNDGDNTVALKIEKNKGYKLFLNGKMIKEVKDTNTKFLNNIENLDSAFIGKTNRYGQSNEYNFKGNIGFMNIYNEPLGDDYLLSKTGETK | -0.464
BC2L-D C-terminal domain (Burkholderia cenocepacia), Q39MQ9_BURS3 (protein) LVIVDAVTLLSAYPEASRDPAAPTVIDGRHLYVVSPGDAAQLGHNDSRLFTGLSPGDQLHLRETALALRAEVSVLFIRFALKDAGIVAPIELEVRDAATAVPDADDLLHPSCRPLKDHYWRSDVLAAGATTCTADFAVCDRDGTVSGYFRWETSIEIAGSQPDTKQPGFKPSSDRNGNFSLPPNTAFKAIFYANAADRQDLKLFIDDAPEPAATFVGNSEDGVRLFTLNSKGGKIRIEASANGRQSATDARLAPLSAGDTVWLGWLGAEDGADADYNDGIVILQWPIT | -0.242
Epa9 (Candida glabrata), CAGL0A01386g (protein) MGSSHHHHHHSSGLVPRGSHMDITPFAHYPRPEGCSSPPNAVSVGLHMDLYNYPYLYVKNPRTGFTNDTDSDADGETDGDSAGGIEGRAGQCWNPEYQDPNFPRYGYKKYGSFGSSDHVNGKISWDHNEFKEGCKPIMARLPTAYNYPAKITFSNFTMVLSGYFKPKSTGLYKFEIHADDFILFNFGSKNAFECCNREESIDNFGPYVAYAMWPNEADQELEVYLFEDSYYPIRLFYNNRDYHSKFMVGFYPPNTEEITYDFDGYLYMLDDTGNECKDSIRYKTVCDD | -0.454
LecB PA7 (Pseudomonas aeruginosa) (protein) MATQGVFTLPANTRFGVTAFANSSATQTVKVLVNNETAATFTGQSTNNAVIGSQVLNSGGGGKVQIQVSVNGRSSDLVSAQVILANELNVALVGSEDSTDNDYNDAVVVINWPLG | -0.511
